Assay: Saturation solubility of tacrolimus in different solvents
Type: physicochemical
Conditions: organic solvent or mixture, thermodynamic from solid; Acetic Acid; room temperature
measured_parameter: solubility (mg/mL)
Numbers only here, please. The scale is mg/mL.

Param item = C=CC[C@@H]1/C=C(\C)C[C@H](C)C[C@H](OC)[C@H]2O[C@@](O)(C(=O)C(=O)N3CCCC[C@H]3C(=O)O[C@H](/C(C)=C/[C@@H]3CC[C@@H](O)[C@H](OC)C3)[C@H](C)[C@@H](O)CC1=O)[C@H](C)C[C@@H]2OC ; retrieve measured solubility. 545

* * *

Test: Saturation solubility of tacrolimus in different solvents
Type: physicochemical
Settings: organic solvent or mixture, thermodynamic from solid; Ethanol; room temperature
measured_parameter: solubility (mg/mL)
Numbers only here, please. The scale is mg/mL.

Param item = C=CC[C@@H]1/C=C(\C)C[C@H](C)C[C@H](OC)[C@H]2O[C@@](O)(C(=O)C(=O)N3CCCC[C@H]3C(=O)O[C@H](/C(C)=C/[C@@H]3CC[C@@H](O)[C@H](OC)C3)[C@H](C)[C@@H](O)CC1=O)[C@H](C)C[C@@H]2OC [Tacrolimus] ; retrieve measured solubility. 389
